From: patent US8835476B2

tested on: M. morganii clinical isolates; assay: Broth microdilution MIC, clinical isolate strains (NAUTICA); assay type: cell-based; details: clinical isolates, one table line per isolate; unit assumed
Measure name: MIC, M. MORGANII (µg/mL)
Express your answer in µg/mL, writing the number without its unit.

Query: For the compound shown here, `O=C(O)c1cc(-c2nnn[nH]2)c(-c2ccc(F)cc2)s1` , give the reported MIC, M. MORGANII.
Reply: 64

Query: For the compound shown here, `O=C(O)c1cc(-c2nnn[nH]2)c(C(=O)O)s1` , give the reported MIC, M. MORGANII.
Reply: 128

Query: For the compound shown here, `O=C(O)c1cc(-c2nn[nH]n2)cs1` , give the reported MIC, M. MORGANII.
Reply: 16

Query: For the compound shown here, `Cn1nnnc1-c1cc(C(=O)O)sc1C(=O)O` , give the reported MIC, M. MORGANII.
Reply: 8

Query: For the compound shown here, `COC(=O)c1cc(-c2nnn(C)n2)c(C(=O)OC)s1` , give the reported MIC, M. MORGANII.
Reply: 128

---

tested on: S. aureus ATCC 29213; assay: Broth microdilution MIC, ATCC strains; assay type: cell-based; conditions: Staphylococcus aureus, ATCC29213, S. aureus ATCC 29213; read-out: MIC (growth inhibition, microdilution method)
Measure name: MIC (µg/mL)
Express your answer in µg/mL, writing the number without its unit.

Query: For the molecule shown here, Fc1ccc(-c2cc(-c3nnn[nH]3)c(-c3ccc(F)cc3)s2)cc1 [DNM-131] , give the reported MIC.
Reply: 32

Query: For the molecule shown here, Cn1nnc(-c2cc(C(=O)O)sc2C(=O)O)n1 [DNM-112] , give the reported MIC.
Reply: 16

---

test system: S. liquefaciens ATCC 27592; experiment: Broth microdilution MIC, ATCC strains; type: cell-based; conditions: S. liquefaciens ATCC 27592; read-out: MIC (growth inhibition, microdilution method)
Please provide measured MIC for the entries that follow.

Query: For the compound shown here, `Cn1nnc(-c2cc(-c3ccc(F)cc3)sc2-c2ccc(F)cc2)n1` , give the reported MIC.
Reply: > 16 µg/mL

Query: For the compound shown here, `O=C(O)c1cc(-c2nnn[nH]2)c(-c2ccc(F)cc2)s1` , give the reported MIC.
Reply: 64 µg/mL

Query: For the compound shown here, `COC(=O)c1sc(-c2ccc(F)cc2)cc1-c1nnnn1C` , give the reported MIC.
Reply: > 4 µg/mL

Query: For the compound shown here, `COC(=O)c1cc(-c2nnnn2C)c(C(=O)OC)s1` , give the reported MIC.
Reply: 8 µg/mL

Query: For the compound shown here, `Cn1nnnc1-c1cc(C(=O)O)sc1C(=O)O` , give the reported MIC.
Reply: 8 µg/mL

Query: For the compound shown here, `O=C(O)c1sc(-c2ccc(F)cc2)cc1-c1nnn[nH]1` , give the reported MIC.
Reply: > 16 µg/mL

Query: For the compound shown here, `Cn1nnnc1-c1cc(-c2ccc(F)cc2)sc1-c1ccc(F)cc1` , give the reported MIC.
Reply: > 16 µg/mL

Query: For the compound shown here, `Cn1nnc(-c2cc(-c3ccc(F)cc3)sc2C(=O)O)n1` , give the reported MIC.
Reply: > 16 µg/mL

Query: For the compound shown here, `Fc1ccc(-c2cc(-c3nnn[nH]3)c(-c3ccc(F)cc3)s2)cc1` , give the reported MIC.
Reply: > 32 µg/mL

Query: For the compound shown here, `CCOC(=O)c1cc(-c2nnn(C)n2)c(-c2ccc(F)cc2)s1` , give the reported MIC.
Reply: > 16 µg/mL

Query: For the compound shown here, `Cn1nnnc1-c1cc(-c2ccc(F)cc2)sc1C(=O)O` , give the reported MIC.
Reply: > 8 µg/mL

Query: For the compound shown here, `O=C(O)c1cc(-c2nn[nH]n2)cs1` , give the reported MIC.
Reply: 16 µg/mL

Query: For the compound shown here, `CCOC(=O)c1cc(-c2nnn[nH]2)c(-c2ccc(F)cc2)s1` , give the reported MIC.
Reply: > 64 µg/mL

Query: For the compound shown here, `Cn1nnc(-c2cc(C(=O)O)sc2-c2ccc(F)cc2)n1` , give the reported MIC.
Reply: 8 µg/mL

Query: For the compound shown here, `COC(=O)c1sc(-c2ccc(F)cc2)cc1-c1nnn(C)n1` , give the reported MIC.
Reply: > 8 µg/mL
